System: MDA-MB-468 breast
Assay: NCI tumour cell line growth inhibition, 384-well format; in the data active = GI50 below about 0.43 µM; inactive = the rest
Classes used: T (active), F (inactive)

                               smiles_input  classification
0  Cc1sc(C(=O)c2cncnc2N[C@@H]2C[C@H](COS(N)(=O)=O)[C@@H](O)C2)cc1[C@@H]1NCCc2ccc(Cl)cc21               T
1    Cc1ccc(/C=N/NC(=O)c2ccccc2Oc2ccccc2)o1               F
2    Cn1c(CCCC(=O)O)nc2cc(N(CCCl)CCCl)ccc21               F
3  C[C@@H](Nc1cc(F)cc(F)c1)c1cc(C(=O)N(C)C)cc2c(=O)cc(N3CCOCC3)oc12               F

* * *

Tested on: SNB-19 CNS
Test: NCI tumour cell line growth inhibition, 384-well format

smiles input	experimental target	u	relation	TGI
COc1cccc2c1C(=O)c1c(O)c3c(c(O)c1C2=O)C[C@@](O)(/C(CO)=N/NC(=O)CCCCCN1C(=O)C=CC1=O)C[C@@H]3O[C@H]1C[C@H](N)[C@H](O)[C@H](C)O1	SNB-19 CNS	µM	=	0.553
CCOc1cc(-c2nncn2C)ccc1Nc1ncc2cc(C)nc(NCC(C)(C)C)c2n1	SNB-19 CNS	µM	>	100
Cn1c(CCCC(=O)O)nc2cc(N(CCCl)CCCl)ccc21	SNB-19 CNS	µM	>	100
Cn1ncc(C#N)c1-c1ccc2c(c1)CN([C@H](CN)Cc1cccc(F)c1)C2=O	SNB-19 CNS	µM	=	67.3

* * *

System: SK-MEL-28 melanoma
Assay: NCI tumour cell line growth inhibition, 384-well format; in the data active means GI50 below about 0.43 µM; inactive means the rest
Classes used: active, inactive

smiles input	classification
Cc1ccc(/C=N/NC(=O)c2ccccc2Oc2ccccc2)o1	inactive
Cn1ncc(C#N)c1-c1ccc2c(c1)CN([C@H](CN)Cc1cccc(F)c1)C2=O	inactive
CCOc1cc(-c2nncn2C)ccc1Nc1ncc2cc(C)nc(NCC(C)(C)C)c2n1	inactive
C[C@@H](Nc1cc(F)cc(F)c1)c1cc(C(=O)N(C)C)cc2c(=O)cc(N3CCOCC3)oc12	inactive
COc1cccc2c1C(=O)c1c(O)c3c(c(O)c1C2=O)C[C@@](O)(/C(CO)=N/NC(=O)CCCCCN1C(=O)C=CC1=O)C[C@@H]3O[C@H]1C[C@H](N)[C@H](O)[C@H](C)O1	active

* * *

Tested on: PC-3 prostate
Test: NCI tumour cell line growth inhibition, 384-well format; in the data active = GI50 below about 0.43 µM; inactive = the rest
Classes used: yes (1) (active), no (0) (inactive)

smiles input	experimental target	classification
Cc1ccc(/C=N/NC(=O)c2ccccc2Oc2ccccc2)o1	PC-3 prostate	no (0)
COc1cccc2c1C(=O)c1c(O)c3c(c(O)c1C2=O)C[C@@](O)(/C(CO)=N/NC(=O)CCCCCN1C(=O)C=CC1=O)C[C@@H]3O[C@H]1C[C@H](N)[C@H](O)[C@H](C)O1	PC-3 prostate	yes (1)
Cn1ncc(C#N)c1-c1ccc2c(c1)CN([C@H](CN)Cc1cccc(F)c1)C2=O	PC-3 prostate	no (0)
Cn1c(CCCC(=O)O)nc2cc(N(CCCl)CCCl)ccc21	PC-3 prostate	no (0)

* * *

Tested on: MDA-MB-231 breast
Assay: NCI tumour cell line growth inhibition, 384-well format
assay readout: TGI (µM)

smiles input	u	relation	reported value
COc1cccc2c1C(=O)c1c(O)c3c(c(O)c1C2=O)C[C@@](O)(/C(CO)=N/NC(=O)CCCCCN1C(=O)C=CC1=O)C[C@@H]3O[C@H]1C[C@H](N)[C@H](O)[C@H](C)O1	µM	=	0.206
Cc1ccc(/C=N/NC(=O)c2ccccc2Oc2ccccc2)o1	µM	=	34
C[C@@H](Nc1cc(F)cc(F)c1)c1cc(C(=O)N(C)C)cc2c(=O)cc(N3CCOCC3)oc12	µM	>	100
Cn1ncc(C#N)c1-c1ccc2c(c1)CN([C@H](CN)Cc1cccc(F)c1)C2=O	µM	=	74.7

* * *

Tested on: KM12 colon
Assay: NCI tumour cell line growth inhibition, 384-well format

smiles input	relation	TGI, µM
CCOc1cc(-c2nncn2C)ccc1Nc1ncc2cc(C)nc(NCC(C)(C)C)c2n1	>	100
COc1cccc2c1C(=O)c1c(O)c3c(c(O)c1C2=O)C[C@@](O)(/C(CO)=N/NC(=O)CCCCCN1C(=O)C=CC1=O)C[C@@H]3O[C@H]1C[C@H](N)[C@H](O)[C@H](C)O1	=	0.295
Cn1ncc(C#N)c1-c1ccc2c(c1)CN([C@H](CN)Cc1cccc(F)c1)C2=O	=	20.4
Cc1ccc(/C=N/NC(=O)c2ccccc2Oc2ccccc2)o1	=	19.5

* * *

System: HOP-92 NSCLC
Assay: NCI tumour cell line growth inhibition, 384-well format; in the data active = GI50 below about 0.43 µM; inactive = the rest
Classes used: t = active, f = inactive

smiles input	classification
Cc1sc(C(=O)c2cncnc2N[C@@H]2C[C@H](COS(N)(=O)=O)[C@@H](O)C2)cc1[C@@H]1NCCc2ccc(Cl)cc21	t
Cn1c(CCCC(=O)O)nc2cc(N(CCCl)CCCl)ccc21	f
COc1cccc2c1C(=O)c1c(O)c3c(c(O)c1C2=O)C[C@@](O)(/C(CO)=N/NC(=O)CCCCCN1C(=O)C=CC1=O)C[C@@H]3O[C@H]1C[C@H](N)[C@H](O)[C@H](C)O1	t
Cn1ncc(C#N)c1-c1ccc2c(c1)CN([C@H](CN)Cc1cccc(F)c1)C2=O	f

* * *

Tested on: CAKI-1 renal
Experiment: NCI tumour cell line growth inhibition, 384-well format
We begin with a simple list: items and their reported TGI.
assay readout: TGI (µM)

In [3]: df
Out[3]:
                               smiles_input   u  relation  reported_value
0  C[C@@H](Nc1cc(F)cc(F)c1)c1cc(C(=O)N(C)C)cc2c(=O)cc(N3CCOCC3)oc12  µM         >             100
1  CCOc1cc(-c2nncn2C)ccc1Nc1ncc2cc(C)nc(NCC(C)(C)C)c2n1  µM         >             100
2    Cn1c(CCCC(=O)O)nc2cc(N(CCCl)CCCl)ccc21  µM         >             100
3  Cn1ncc(C#N)c1-c1ccc2c(c1)CN([C@H](CN)Cc1cccc(F)c1)C2=O  µM         =            40.8
4    Cc1ccc(/C=N/NC(=O)c2ccccc2Oc2ccccc2)o1  µM         =            31.6
